property_measured: melting point

Solved entries (count: 5):
compound	property_measured	result_value
CS(=O)(=O)c1ccc(C(CC2CCCC2)C(=O)Nc2ccncn2)cc1[N+](=O)[O-] (stereo unspecified)	melting point	91 to 95 °C
COc1ccc(Nc2nc(NC3CCCCCC3)nc(Oc3ccccc3I)n2)cc1Cl	melting point	206 to 208 °C
CCSc1ccc2c3c(cccc13)C(=O)N2	melting point	144 to 146 °C
Cc1cc(NC2=NCCN2)n(CCC(C)C)n1	melting point	104 to 106 °C
Cc1nc2cnccc2n1-c1ccc(CO)cc1	melting point	154 to 156 °C

// next entry
Briefly, melting point measured for OCc1cc(F)c(CO)cc1F : 268 to 271 °C

###

Some molecules, each annotated with its measured melting point.

molecule	melting point
CCCCCCCCCCCCCCc1ccc(CCCCCC)c(O)c1	43 to 45 °C
COC(=O)c1cnn(C)c1Cl	69 to 70 °C

Briefly, melting point measured for O=C(CCC=C(c1ccccc1)c1ccccc1)NCCCCn1ccnc1 : 102 to 103 °C

Briefly, melting point measured for CCC1c2cccn2-c2ccc(F)cc2N1S(=O)(=O)c1cc(C)c(OC)c(C)c1 (configuration not stated) : 140 to 142 °C

Briefly, melting point measured for CCOC(=O)c1cn(C)c2cnc3cc(F)c(N4CCCC(C)(C)C4)cc3c2c1=O : 218 to 220 °C

Briefly, melting point measured for O=C(O)C(=O)N1CCC(Oc2ccccc2)CC1 : 109 to 112 °C

Briefly, melting point measured for O=C(O)c1cc(-n2c(-c3ccc([N+](=O)[O-])cc3)cc3c2CCCC3)ccc1O : 241 to 242 °C

Briefly, melting point measured for Cc1cc(SCc2ccc(-c3ccccc3)cc2)ccc1OCC(=O)O : 138 °C

Briefly, melting point measured for CCCCn1c(=O)c2cc(C(=O)OCC)cn2c2cc(Cl)ccc21 : 172 to 174 °C

Briefly, melting point measured for O=Cc1cc(O)c2c(c1O)CCCC2 : 145 °C

Briefly, melting point measured for O=C(Nc1ccc(Cl)cc1)c1cc(Cl)c2cccnc2c1O : 214 to 216 °C

Briefly, melting point measured for CCCN(CCC)C1Cc2cccc3c2N(C1)C(=O)CN3 (configuration not stated) : 97 to 99 °C

Briefly, melting point measured for O=[N+]([O-])C=Cc1cc(Br)ccc1O : 165 to 167 °C

Briefly, melting point measured for CC(C)(C)c1cc(C(=O)NCCc2ccc(N)cc2)cc(C(C)(C)C)c1O : 193 to 195 °C

Briefly, melting point measured for O=c1ccc(-c2c(-c3ccccc3)nn3ccccc23)nn1[C@@H]1CCCC[C@@H]1O (relative stereo) : 195 to 197 °C

Briefly, melting point measured for COc1cc(OC)cc(-c2oc3ncnc(NC4CCCCCC4)c3c2-c2ccccc2)c1 : 151 to 152 °C

###

Some compounds, each annotated with its measured melting point.

Solved entries (count: 3):
compound	melting point
CC(=O)NN1CC(C)=NNC1=O	197 to 199 °C
Nc1nc(C2CCN(C(=O)Cc3ccc(O)c(O)c3)CC2)c2ccccc2n1	250 to 253 °C
Cc1ccc(-c2nnc(-c3ccco3)s2)cc1	111 to 113 °C

Briefly, melting point measured for Cn1c(C(=O)c2ccc(F)cc2)cc2cc(Br)ccc21 : 162 to 164 °C

Briefly, melting point measured for CCC(C)(C)c1cc(-c2cccc(CC3SC(N4CCCC4)=NC3=O)c2)ccc1O (stereo unspecified) : 216 to 219 °C

Briefly, melting point measured for Clc1cccc(OCC(Cn2ccnc2)Sc2c(Cl)cccc2Cl)c1Cl (stereo unspecified) : 135 to 136 °C

###

Some compounds, each annotated with its measured melting point.

Solved entries (count: 5):
compound	melting point
CC(C)c1ccc2[nH]c(C(=O)c3ccc(Cl)cc3)c(CC(=O)O)c2c1	197 to 200 °C
CNS(=O)(=O)Cc1cc(Br)c(NC(=O)C(F)(F)F)c(Br)c1	179 to 180 °C
COc1ccc(-c2cc3ccccc3[nH]2)cc1NC(=S)Nc1ccc(C(=O)O)cc1	201 to 203 °C
COc1ccc(C2=CC(O)CC2)cc1OC1CCCC1 (stereo not given)	105 to 107 °C
O=C1CCC(CCO)N1 (stereo not given)	52 to 52.5 °C

Briefly, melting point measured for COC(=O)C1Cc2c([nH]c3ccccc23)C(c2ccc(Cl)c(Cl)c2)N1C(=O)CCl (stereo not given) : 163 to 165 °C

Briefly, melting point measured for O=C(O)c1c(Cl)c(Cl)cc([N+](=O)[O-])c1Cl : 149 to 151 °C

Briefly, melting point measured for CN1CCN(Cc2ccccc2)C(c2ccccc2)C1 (stereo not given) : 58 to 60 °C

Briefly, melting point measured for Cc1oc2c(C)c(C)c(N3Cc4ccccc4C3)c(C)c2c1-c1ccc(C(C)C)cc1 : 126 to 129 °C

Briefly, melting point measured for CCOC(=O)C(CC(=O)O)(Cc1cn(C)c2ccccc12)C(=O)OCC : 127 to 130 °C

###

Some molecules, each annotated with its measured melting point.

Solved entries (count: 5):
molecule	melting point
C=CCN(CC)c1nc(N2CCc3ccccc3CC2)c(C#N)c(=O)n1CC=C	138 to 140 °C
CC(=O)Oc1nn(-c2ccc(C)cc2)c(=O)c2c1Nc1cc(Cl)ccc1C2	238 to 240 °C
CCOC(=O)c1cn(CC)c2ncnn2c1=O	129 to 131 °C
N#Cc1cn(C2CC(O)C(CO)O2)c(=O)[nH]c1=O (stereo not given)	161 °C
CCNC(=O)Nc1c(Cl)cccc1[Si](C)(C)C	161 to 163 °C

Briefly, melting point measured for CCCCCCC(C)(C)c1cc(O)c2c(c1)OC(C)(C)[C@@H]1CC=C(NC(C)=O)C[C@@H]21 (relative stereo) : 186 to 188 °C

Briefly, melting point measured for COC(=O)C1=Cc2cc(-c3ccc(C)cc3)ccc2S(=O)(=O)CC1 : 203 to 204 °C

Briefly, melting point measured for CCCOc1ccc(/C=C/c2nc3c([nH]2)c(=O)n(CC)c(=O)n3CC)cc1 : > 270 °C

Briefly, melting point measured for CC(C)NCCCC[C@@H](N)C(=O)O : 224 °C

Briefly, melting point measured for O=Cc1c(-c2ccccc2)nc2sc3c(n12)CCCC3 : 150 °C

###

Some compounds, each annotated with its measured melting point.

compound	melting point
Cc1cccc(N2CCC(N)=N2)c1	119 to 120 °C
Cn1c2cc(Cl)ccc2c2c(=O)[nH]c(-c3ccncc3)nc21	> 300 °C
O=C1CCN2C(=O)c3cccc(-n4c(=O)[nH]c5cnccc5c4=O)c3C2C1 (configuration not stated)	230 °C
O=C(O)c1ccsc1COc1ccc(CCCCO)cc1	140 to 141 °C
CC1=C(C2C=CN(C(=O)OCC(Cl)(Cl)Cl)N=C2)SCC(=O)N1 (configuration not stated)	156 to 157 °C

// next entry
Briefly, melting point measured for Cc1ccc(O)c(NC(=O)c2ccc(OCCCCc3ccccc3)cc2)c1 : 138 to 140 °C

###

Some compounds, each annotated with its measured melting point.

Solved entries (count: 6):
compound	melting point
CCCCc1ccc(NC(=O)c2ccc([N+](=O)[O-])cc2)cc1	151 to 152 °C
Cc1cc(-c2cccc(C3=Nc4cc(O)c(-c5ccccc5F)cc4NC(=O)C3)c2)on1	237 °C
CN(C)Cc1cc2c(s1)Oc1ccccc1N=C2N1CCN(C)CC1	188 to 189 °C
CCCCNC(=O)CCc1ccccc1	26.7 to 33.1 °C
C#CCn1c(I)cc(C(O)C(C)(C)C)c(C)c1=O (configuration not stated)	105 to 106 °C
COc1ccc(CCN2CC(COc3cccc4c(=O)[nH]ccc34)OC2=O)cc1OC (configuration not stated)	173 to 175 °C

Briefly, melting point measured for COc1cc(OC)nc(C(=O)c2nscc2C(=O)N(C)c2ccccc2)n1 : 140 to 142 °C

Briefly, melting point measured for CCOC(=O)CC(C(=O)OCC)N1CCN(CC2CN(c3ccc(C(=N)NC(=O)c4ccccc4)cc3)C(=O)O2)CC1 (configuration not stated) : 136 °C

Briefly, melting point measured for CC(C)CC(=O)Nc1cccc(-c2ccnc3c(-c4ccc(-c5ccccc5)cc4)cnn23)c1 : 157 to 160 °C

Briefly, melting point measured for CCCCCCCCCCCCCCCCOC(=O)c1cnccn1 : 53 to 54 °C

Briefly, melting point measured for Cc1nc(-c2cnc(Cc3ccccc3)o2)sc1C(=O)NCc1ccccc1 : 141 to 142 °C

Briefly, melting point measured for Cc1ccc2c(c1)C(=O)CCC21CCC(=O)N(C)C1=O (configuration not stated) : 146 to 148 °C

Briefly, melting point measured for Cc1nc[nH]c1CSCCNC1=Nc2ccccc2C(=O)C1 : 121 to 124 °C

Briefly, melting point measured for CC(C)C(C)(C)NC(N)=O : 175 to 176 °C

Briefly, melting point measured for Oc1ccc(O)c(O)c1O : 162 to 164 °C

Briefly, melting point measured for CCOC(=O)Cn1cccc(O)c1=O : 141 to 151 °C
